The reader will find reported cAMP Emax (%) values listed item by item below.
system: T1, P1R-DelNt (truncated human P1R deleted for residues 24-181) (human, UniProt Q03431 182-593)
T1 sequence (looked up): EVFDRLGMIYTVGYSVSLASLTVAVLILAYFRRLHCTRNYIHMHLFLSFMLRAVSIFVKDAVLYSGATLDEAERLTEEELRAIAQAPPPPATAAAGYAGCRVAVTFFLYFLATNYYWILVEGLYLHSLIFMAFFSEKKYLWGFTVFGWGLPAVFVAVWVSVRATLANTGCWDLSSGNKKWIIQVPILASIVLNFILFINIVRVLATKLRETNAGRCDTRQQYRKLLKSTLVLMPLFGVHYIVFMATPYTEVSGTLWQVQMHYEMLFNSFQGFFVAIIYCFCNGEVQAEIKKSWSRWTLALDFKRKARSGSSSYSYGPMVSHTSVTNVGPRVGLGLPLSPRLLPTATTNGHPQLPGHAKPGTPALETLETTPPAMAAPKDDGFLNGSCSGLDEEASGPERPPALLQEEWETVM
assay details: cell-based or functional assay
Non-standard residues stand in square brackets, D forms with d. No end group written: not given here. hArg = N=C(N)NCCCC[C@H](N)C(=O)O; Aib = CC(C)(N)C(=O)O
Form entry: value (%) — number only.

Worked set:
| binder | cAMP Emax (%) |
| --- | --- |
| [Aib]V[Aib]EIQLMHQ[hArg]AKW-NH2 (N-terminus assumed; SMILES CC[C@H](C)[C@H](NC(=O)[C@H](CCC(=O)O)NC(=O)C(C)(C)NC(=O)[C@@H](NC(=O)C(C)(C)N)C(C)C)C(=O)N[C@@H](CCC(N)=O)C(=O)N[C@@H](CC(C)C)C(=O)N[C@@H](CCSC)C(=O)N[C@@H](Cc1c[nH]cn1)C(=O)N[C@@H](CCC(N)=O)C(=O)N[C@@H](CCCCNC(=N)N)C(=O)N[C@@H](C)C(=O)N[C@@H](CCCCN)C(=O)N[C@@H](Cc1c[nH]c2ccccc12)C(N)=O) [[Aib^1,3]PTH(1-14) (AibValAibGluIleGlnLeuMetHisGlnHarAlaLysTrp-amide)] | 100 |
| AVAEIQLMHQR-NH2 [PTH(1-11) (AlaValAlaGluIleGlnLeuMetHisGlnArg-amide)] | 100 |
| AVAEIALMHAR-NH2 [[Ala^6, Ala^10]PTH(1-11)] | 42 |

Enquiry: Return cAMP Emax (%) for the following binder: [Aib]V[Aib]EIALMHQ[hArg]AKW-NH2 (N-terminus assumed; SMILES CC[C@H](C)[C@H](NC(=O)[C@H](CCC(=O)O)NC(=O)C(C)(C)NC(=O)[C@@H](NC(=O)C(C)(C)N)C(C)C)C(=O)N[C@@H](C)C(=O)N[C@@H](CC(C)C)C(=O)N[C@@H](CCSC)C(=O)N[C@@H](Cc1c[nH]cn1)C(=O)N[C@@H](CCC(N)=O)C(=O)N[C@@H](CCCCNC(=N)N)C(=O)N[C@@H](C)C(=O)N[C@@H](CCCCN)C(=O)N[C@@H](Cc1c[nH]c2ccccc12)C(N)=O) [[Aib^1,3, Ala^6]PTH(1-14)]
Return: 101

Enquiry: Return cAMP Emax (%) for the following binder: AVAEIALMHQR-NH2 [[Ala^6]PTH(1-11)]
Return: 14
